Taken from patent US12345641B2.

# Method description: Absorption and emission spectra of fluoresceins and SDMA conjugates (Example 33)
# Format: physicochemical
# Test conditions: PBS buffer
Answer each item with its documented Max Absorption.

Q: Request the reported Max Absorption associated with `O=C1OC2(c3cc(Cl)c(O)cc3Oc3cc(O)c(Cl)cc32)c2ccccc21`
A: 500 nm

Q: Request the reported Max Absorption associated with CNC(=NCCCC(N)C(=O)NCc1c(O)c(Cl)cc2c(-c3ccccc3C(=O)O)c3cc(Cl)c(=O)cc-3oc12)NC (stereo not drawn)
A: 510 nm

Q: Request the reported Max Absorption associated with C/N=C(\NC)NCCC[C@@H](N)C(=O)NCc1c(O)ccc2c(-c3ccccc3C(=O)O)c3ccc(=O)cc-3oc12 (stereo in doubt)
A: 495 nm

Q: Request the reported Max Absorption associated with CNC(=NCCCC(N)C(=O)NCc1c(O)c(F)cc2c(-c3ccccc3C(=O)O)c3cc(F)c(=O)cc-3oc12)NC (stereo not drawn)
A: 437 nm

Q: Request the reported Max Absorption associated with `O=C1OC2(c3cc(F)c(O)cc3Oc3cc(O)c(F)cc32)c2ccccc21`
A: 489 nm

Q: Request the reported Max Absorption associated with `O=C(O)c1ccccc1-c1c2ccc(=O)cc-2oc2cc(O)ccc12`
A: 489 nm
